// background-corrected fluorescence lookup, one value per entry
Experiment: background-corrected fluorescence of 3'-dye-labeled ssDNA relative to brightest sequence (3'-GCGCG) (fraction); higher = brighter dye fluorescence (less quenching)
Details: dye: Cy3 (3' terminal)
The response must contain the number and no unit.

Reference set (5 entries):
Ask: Please report the recorded background-corrected fluorescence for TTTTTTGAGCAGCAGCATCATTTTTTTTTTTTTTTCTTTG [GTTTC] .
Reply: 0.498

Ask: Also check TTTTTGCATGCTGATCATCATTTTTTTTTTTTTTTTACGG [GGCAT]
Reply: 0.697

Ask: Also need TTTTTTCATGCTCAGCATGATTTTTTTTTTTTTTTGAGTC [CTGAG] , thanks.
Reply: 0.469

Ask: Please answer likewise for TTTTTGCATGCTCATCATCATTTTTTTTTTTTTTTTAGGG [GGGAT]
Reply: 0.653

Ask: Next: TTTTTGCATGCGCATGCTCATTTTTTTTTTTTTTTTATAG [GATAT]
Reply: 0.548

***
Ask: // query background-corrected fluorescence value for entry TTTTTTCATGCTGATCATCATTTTTTTTTTTTTTTGACGG [GGCAG]
Reply: 0.65

Ask: Next sequence: TTTTTTCATGAGCATCATGATTTTTTTTTTTTTTTGCTGC [CGTCG]
Reply: 0.509

Ask: Same thing, different sequence: TTTTTTGATGCTGATGCGCATTTTTTTTTTTTTTTCACAT [TACAC]
Reply: 0.521

Ask: Do the same for TTTTTTGATGATCATCATCATTTTTTTTTTTTTTTCCGGG [GGGCC] please
Reply: 0.731

Ask: Now consider TTTTTTCATGCTCATGCTGATTTTTTTTTTTTTTTGAGAC [CAGAG] and answer again.
Reply: 0.476

Ask: Then this sequence: TTTTTTCATGCTGCTGCGCATTTTTTTTTTTTTTTGAAAT [TAAAG]
Reply: 0.574

Ask: Further, for TTTTTTGAGCATGCTGCTCATTTTTTTTTTTTTTTCTAAG [GAATC] ?
Reply: 0.542

Ask: What do you get for TTTTTTCATGATGCGCAGCATTTTTTTTTTTTTTTGCATT [TTACG] ?
Reply: 0.514

* * *

Test: background-corrected fluorescence of 3'-dye-labeled ssDNA relative to brightest sequence (3'-GCGCG) (fraction); higher = brighter dye fluorescence (less quenching)
Conditions: dye: Cy3 (3' terminal)
QUANTITY: background-corrected fluorescence
Number only, no unit.

Ask: Give its background-corrected fluorescence value. Item: TTTTTTGATCAGCATGCGCATTTTTTTTTTTTTTTCGTAT [TATGC]
Reply: 0.555

Ask: Lookup TTTTTTGCTCATCATGCTCATTTTTTTTTTTTTTTAGGAG [GAGGA]
Reply: 0.597

Ask: Now give it for TTTTTTGCTCATGCTCAGCATTTTTTTTTTTTTTTAGAGT [TGAGA] too.
Reply: 0.598

Ask: And for `TTTTTTGATGCTGCTGCTGATTTTTTTTTTTTTTTCAAAC` ?
Reply: 0.428

Ask: Now consider TTTTTGCATGATGAGCATGATTTTTTTTTTTTTTTTCCTC [CTCCT] .
Reply: 0.351

Further cases:
Ask: What background-corrected fluorescence value was documented for this sequence, TTTTTGCAGCATGCTGCTGATTTTTTTTTTTTTTTTTAAC [CAATT] ?
Reply: 0.408

Ask: Then TTTTTGCATGATCATGATGATTTTTTTTTTTTTTTTCGCC [CCGCT] ?
Reply: 0.462

Ask: Quick one: TTTTTTCAGCATCATGCGCATTTTTTTTTTTTTTTGTGAT [TAGTG]
Reply: 0.548

Ask: Entry to check: TTTTTGCATCAGCATGCTCATTTTTTTTTTTTTTTTGTAG [GATGT]
Reply: 0.535

* * *

# background-corrected fluorescence annotations
Assay: background-corrected fluorescence of 3'-dye-labeled ssDNA relative to brightest sequence (3'-GCGCG) (fraction); higher = brighter dye fluorescence (less quenching)
Conditions: dye: Cy3 (3' terminal)
Please reply with the value in numeric form only.

For orientation, consider the following solved cases.
Ask: Entry TTTTTTGATGCTCAGCAGCATTTTTTTTTTTTTTTCAGTT [TTGAC] has what background-corrected fluorescence?
Reply: 0.598

Ask: For `TTTTTTGCGCAGCAGCAGCATTTTTTTTTTTTTTTATTTT` then?
Reply: 0.488

Ask: Now the sequence TTTTTTGCTCATCATGATGCTTTTTTTTTTTTTTTAGGCA [ACGGA]
Reply: 0.584

***
Ask: I have this sequence here, TTTTTTCATCAGCATGAGCATTTTTTTTTTTTTTTGGTCT [TCTGG] , and I need its recorded background-corrected fluorescence.
Reply: 0.486

* * *

Assay: background-corrected fluorescence of 3'-dye-labeled ssDNA relative to brightest sequence (3'-GCGCG) (fraction); higher = brighter dye fluorescence (less quenching)
Details: dye: Cy3 (3' terminal)
QUANTITY: background-corrected fluorescence

Ask: GET /values?readout=background-corrected fluorescence&item= TTTTTTGCGCAGCATGATCATTTTTTTTTTTTTTTATTCG [GCTTA]
Reply: 0.519

New cases:
Ask: Return reported background-corrected fluorescence; argument: TTTTTGCATGCGCATCATCATTTTTTTTTTTTTTTTATGG [GGTAT]
Reply: 0.576

Ask: For TTTTTGCAGCAGCATCATCATTTTTTTTTTTTTTTTTTGG [GGTTT] then?
Reply: 0.612
